Cited source: PubChem BioAssay (NCI)

- Tested on: KM20L2 colon
- experimental-protocol: NCI tumour cell line growth inhibition, 48 h

{"columns": ["compound", "subject-of-test", "TGI"],
 "data": [
  ["CC(C)(C)c1cc(N=NC(=S)NCc2ccccc2)cc(C(C)(C)C)c1O", "KM20L2 colon", "> 100 µM"],
  ["NC(=S)N/N=C1\\C(=O)N(c2cccc([N+](=O)[O-])c2)C(=O)C1C(=O)Nc1cccc([N+](=O)[O-])c1 (stereo not drawn)", "KM20L2 colon", "> 100 µM"],
  ["COc1ccc(C2c3cc4c(cc3OC(O)(CO)C2C(=O)O)OCO4)c(OC)c1OC (stereo not drawn) (tested in a mixture with another compound)", "KM20L2 colon", "> 100 µM"],
  ["Cc1cccc(NC(=O)CSc2nnc(Cc3ccccc3)o2)c1", "KM20L2 colon", "> 100 µM"],
  ["CC(=O)Oc1cc2c(=O)oc3c(OC(C)=O)c(OC(C)=O)c(OC(C)=O)c4c(=O)oc(c1OC(C)=O)c2c34", "KM20L2 colon", "> 100 µM"],
  ["Cc1nc(Nc2ccccc2)sc1C(=O)NNC(N)=O", "KM20L2 colon", "> 100 µM"],
  ["CCC12CC[C@H](C#N)N3CCc4c(n(c5ccccc45)C(=O)C1)C32 (stereo partly drawn)", "KM20L2 colon", "35 µM"],
  ["Cc1c2c(cc3c1[nH]c1ccccc13)C(c1ccc(F)cc1)=NCC2", "KM20L2 colon", "5.52 µM"]
]}
